Recorded values, source the supplement of paper PMC10567573.

B1: MNAT1 (parent)
chain: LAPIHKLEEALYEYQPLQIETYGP

Variants of: B1
Assay: protein stability index of a GFP-peptide fusion (GPS, HEK-293T) (PSI 1-6); higher = more stable;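 further: lentivirally expressed fusions sorted by FACS into six bins by GFP to DsRed ratio, PSI derived from sequencing read proportions per bin multiplied by bin number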
Details: c terminus: a fixed tail appended
Metric: protein stability index
Lab note: record the figure alone, no unit after it.

Example results:
LAPIHKLEEAGYEYQPLQIETYGP ... 3.48
LAPIHKLEEALYEYQPLQGETYGP ... 2.85
LAPNHKLEEALYEYQPLQIETYGP ... 2.35

*Q* Data request, read-out protein stability index, for LAPIHKLEEALYEYQPLQIEGYGP
*A* 1.98

*Q* Now consider LAPIHKLEEALYEYQYLQIETYGP and answer again.
*A* 1.52

*Q* Lookup LAPIHKLEEALYEYMPLQIETYGP
*A* 1.94

*Q* # iterate: LAPIHKLEEALYEYQPLQIETYIP
*A* 2.07

*Q* Follow-up item: LAPIHKLEEALYEYQPQQIETYGP
*A* 2.19
